# experimentalSystem: EPHB1 (UniProt P54762)
# Sequence (P54762 whole entry, looked up): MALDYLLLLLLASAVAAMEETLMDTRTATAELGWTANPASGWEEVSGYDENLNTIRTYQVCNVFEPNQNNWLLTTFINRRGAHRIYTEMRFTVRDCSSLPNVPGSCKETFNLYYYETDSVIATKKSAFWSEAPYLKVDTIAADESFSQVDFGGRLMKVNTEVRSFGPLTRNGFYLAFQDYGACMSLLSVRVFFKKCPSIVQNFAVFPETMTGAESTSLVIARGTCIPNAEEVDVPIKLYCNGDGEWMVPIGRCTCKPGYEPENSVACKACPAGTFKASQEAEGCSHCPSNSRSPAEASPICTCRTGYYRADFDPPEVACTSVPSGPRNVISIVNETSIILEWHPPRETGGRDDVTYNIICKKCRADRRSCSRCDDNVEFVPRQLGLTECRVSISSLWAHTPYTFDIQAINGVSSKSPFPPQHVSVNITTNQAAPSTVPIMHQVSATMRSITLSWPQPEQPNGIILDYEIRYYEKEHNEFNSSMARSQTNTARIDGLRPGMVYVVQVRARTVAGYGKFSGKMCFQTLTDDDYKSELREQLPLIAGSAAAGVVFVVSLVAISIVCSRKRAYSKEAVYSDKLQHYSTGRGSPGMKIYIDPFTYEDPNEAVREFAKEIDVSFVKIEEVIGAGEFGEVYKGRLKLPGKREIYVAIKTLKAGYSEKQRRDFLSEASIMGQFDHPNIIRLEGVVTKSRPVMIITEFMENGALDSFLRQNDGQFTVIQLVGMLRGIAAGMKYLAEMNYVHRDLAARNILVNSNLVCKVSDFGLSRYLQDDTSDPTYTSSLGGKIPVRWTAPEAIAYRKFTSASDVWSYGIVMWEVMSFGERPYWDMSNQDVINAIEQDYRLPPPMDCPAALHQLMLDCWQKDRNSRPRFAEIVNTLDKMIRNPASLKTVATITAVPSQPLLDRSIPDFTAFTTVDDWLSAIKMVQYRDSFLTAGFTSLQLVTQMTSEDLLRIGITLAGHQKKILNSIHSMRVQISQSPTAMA
# testDescription: phosphorylation enrichment, bacterial display (enrichment ratio); higher = better substrate or ligand; peptides without Tyr show the background
metricName: phosphorylation enrichment

INSERT INTO assay_data (recordsequence, measuredvalue) VALUES
  ('GTGTAYLCGVK [ALPL_Y117_A114G]', 0.551),
  ('EDKFMYSEFPQ [PTEN_Y240_F241S]', 0.771),
  ('AESPEYVHMFT [FAM111A_Y511_YF]', 0.579),
  ('RGRSTYYWPSP [GAGE12J_Y9_R13S]', 0.994),
  ('ALTRSYVREKV [CYP2C8_Y243_I244V]', 0.42),
  ('VRALTYCDLHK [KCNH2_Y827]', 0.603),
  ('GNEEAYGRSHI [FAM171B_Y522]', 0.448),
  ('TKVVHYRKWIK [KLK2_Y249]', 0.483),
  ('RLLVIYPWTQR [HBG2_Y36_V35I]', 0.836),
  ('RHFTGYRIELQ [INSR_Y818]', 0.472),
  ('TFLRTYTDTMQ [TSPAN7_Y124_A127T]', 0.527),
  ('NARGLYYKLHN [GATA2_Y376_C373R]', 0.595),
  ('PGVDIYISPNM [PADI3_Y51]', 1.17),
  ('EQKKYYNATKK [SCN5A_Y1495_M1498T]', 0.399),
  ('GCRSKYVRLWG [KCNQ1_Y184_G186R]', 0.383),
  ('RHLQEYQDPLN [GFAP_Y349_L352P]', 0.504),
  ('IMITDYLPLFR [INSR_Y87_L89P]', 0.641),
  ('FLQEIYNSNNQ [FGG_Y140_YF]', 0.79),
  ('RGMVMYTSKDR [ZG16B_Y136]', 0.623),
  ('KEAALYPHLPP [SQSTM1_Y383]', 0.414),
  ('ASQEEYSAMRD [KRAS_Y64_G60S]', 0.577),
  ('SGFESYGSSSS [RPA2_Y9_Y14S]', 0.47),
  ('MKKMHYVDPDR [ST3GAL5_Y99_H104R]', 0.321),
  ('DPLLTYLFPPK [LMNA_Y481_R482L]', 0.992),
  ('LQEQNYLAVDS [FAM114A1_Y115]', 6.07),
  ('YGTAQYCCRMG [LRRK2_Y2023_I2020T]', 0.714),
  ('AKKKMYSHKTK [AGXT_Y231_R233H]', 1.01),
  ('FENGEYIIRQG [PRKG1_Y247_YF]', 0.543),
  ('WNDPDYMDSRR [GAA_Y407_L405P]', 0.989);

* * *

# experimentalSystem: SHP2-C SH2;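 further: peptide library displayed on the E. coli surface as eCPX fusions, selected cells deep-sequenced, score is each peptide's frequency after selection divided by its frequency in the input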
# testDescription: SH2 binding enrichment of the phosphorylated peptide, bacterial display (enrichment ratio); higher = better substrate or ligand; peptides without Tyr show the background
metricName: SH2 binding enrichment

INSERT INTO assay_data (recordsequence, experimentalsystem, measuredvalue) VALUES
  ('WQQQSYLASGI [CTNNB1_Y30_D32A]', 'SHP2-C SH2', 0.588),
  ('WSQAMYPDLGP [STARD8_Y330_R327Q]', 'SHP2-C SH2', 0.766),
  ('FLQEIYNSNNQ [FGG_Y140_YF]', 'SHP2-C SH2', 1.1),
  ('CTNPQYLAAGS [RABL3_Y185_R184Q]', 'SHP2-C SH2', 0.721),
  ('FGGLRCGFGVL [KRTAP20-2_Y13_Y13C_YF]', 'SHP2-C SH2', 0.609),
  ('RNGDRYFKEIV [DCX_Y64_G67E]', 'SHP2-C SH2', 0.588),
  ('ATQDNYVLEVR [PTPRZ1_Y2179_D2178N]', 'SHP2-C SH2', 0.557),
  ('LKSEMYQKLLK [RGS13_Y146]', 'SHP2-C SH2', 0.523),
  ('KGNMFYENSFA [EGFR_Y113_R108K_YF]', 'SHP2-C SH2', 1),
  ('ILTYKYLQIPM [KIT_Y547_K550I]', 'SHP2-C SH2', 3.97),
  ('TSQSQYFSFRE [CCDC170_Y323]', 'SHP2-C SH2', 0.999),
  ('LDTSQYFRLFN [CPT2_Y217_M214T]', 'SHP2-C SH2', 1.98),
  ('GAEIVYKSPVV [MAPT_Y711]', 'SHP2-C SH2', 0.63),
  ('MKKMHYVDPDR [ST3GAL5_Y99_H104R]', 'SHP2-C SH2', 0.76);
